Data origin, for the record: PubChem BioAssay AID651650

# test target: Neuropilin-1 (Homo sapiens) (UniProt O14786)
# Sequence (O14786 whole entry, looked up): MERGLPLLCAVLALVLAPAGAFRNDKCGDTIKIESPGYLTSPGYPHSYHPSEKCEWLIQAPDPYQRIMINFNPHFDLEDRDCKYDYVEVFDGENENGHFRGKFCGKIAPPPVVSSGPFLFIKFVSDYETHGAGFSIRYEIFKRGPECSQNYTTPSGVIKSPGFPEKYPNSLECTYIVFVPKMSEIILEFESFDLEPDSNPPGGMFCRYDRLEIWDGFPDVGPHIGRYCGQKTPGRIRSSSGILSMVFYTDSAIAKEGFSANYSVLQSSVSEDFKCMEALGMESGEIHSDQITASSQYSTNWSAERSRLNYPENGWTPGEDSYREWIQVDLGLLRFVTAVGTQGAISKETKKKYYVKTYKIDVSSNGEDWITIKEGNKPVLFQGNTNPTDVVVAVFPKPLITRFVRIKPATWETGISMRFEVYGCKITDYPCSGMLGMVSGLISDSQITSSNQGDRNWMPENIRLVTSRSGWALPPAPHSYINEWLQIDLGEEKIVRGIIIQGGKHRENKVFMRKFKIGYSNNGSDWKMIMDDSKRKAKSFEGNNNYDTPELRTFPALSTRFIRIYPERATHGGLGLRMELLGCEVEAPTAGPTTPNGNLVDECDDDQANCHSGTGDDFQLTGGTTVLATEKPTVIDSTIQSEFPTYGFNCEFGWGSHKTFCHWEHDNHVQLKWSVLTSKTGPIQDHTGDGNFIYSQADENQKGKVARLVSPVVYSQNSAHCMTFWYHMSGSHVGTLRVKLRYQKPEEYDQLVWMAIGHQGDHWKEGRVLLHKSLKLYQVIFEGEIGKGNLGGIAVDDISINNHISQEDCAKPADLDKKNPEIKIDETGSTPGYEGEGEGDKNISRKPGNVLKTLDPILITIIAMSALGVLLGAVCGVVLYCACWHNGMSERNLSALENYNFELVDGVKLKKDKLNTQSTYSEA
# protocol summary: NRP-1 b1b2 CendR peptide binding inhibitors, dose response, biochemical, FP and AlphaScreen panel (AID 651650)
# reported conditions: NRP-1 b1b2 / RPARPAR peptide binding, FP or AlphaScreen; AlphaScreen, run 1; individual panel run IC50

| compound | IC50 |
| --- | --- |
| CCOC(=O)C1(Cc2cccc(F)c2)CCN(Cc2ccon2)CC1 | 9.02 µM |
| COc1ccc(C(=O)COC(=O)C(CCSC)NS(=O)(=O)c2ccc(Cl)cc2)cc1 (stereo unspecified) | > 100 µM |
| CN1C[C@H](CO)C=C2c3cccc4[nH]cc(c34)C[C@H]21 | 14.4 µM |
| OCCNc1ncnc2ccc(Br)cc12 | 45.2 µM |
| NS(=O)(=O)c1ccc(CNC(=S)NCc2ccc(F)cc2)cc1 | > 100 µM |
| O=C1c2cc([N+](=O)[O-])cc3cc([N+](=O)[O-])cc(c23)C(=O)N1c1ccccn1 | > 100 µM |
